Molecular target: T1, human CD73 on tumor cell line MDA-MB-231 that highly expresses human CD73 (human, UniProt P21589 27-549)
T1 construct: whole, on cells; Cells were fixed on the plate for the cell ELISA and live for the enzyme assay; also called MDA-MB-231 cells
T1 sequence (looked up): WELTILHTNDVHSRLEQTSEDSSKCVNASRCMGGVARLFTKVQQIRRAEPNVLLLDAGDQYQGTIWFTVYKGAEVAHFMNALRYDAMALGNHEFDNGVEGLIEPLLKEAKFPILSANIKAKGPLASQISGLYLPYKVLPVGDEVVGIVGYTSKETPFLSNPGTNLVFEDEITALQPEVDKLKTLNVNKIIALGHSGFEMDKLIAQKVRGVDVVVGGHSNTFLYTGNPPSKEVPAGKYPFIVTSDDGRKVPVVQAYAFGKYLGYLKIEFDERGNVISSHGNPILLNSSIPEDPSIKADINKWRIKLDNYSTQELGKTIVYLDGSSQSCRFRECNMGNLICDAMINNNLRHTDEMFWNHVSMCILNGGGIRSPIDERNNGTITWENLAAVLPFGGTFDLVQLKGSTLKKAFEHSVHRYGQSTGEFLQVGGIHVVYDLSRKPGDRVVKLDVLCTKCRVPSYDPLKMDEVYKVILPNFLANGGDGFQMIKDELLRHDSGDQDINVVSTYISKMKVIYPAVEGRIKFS
Assay: cell ELISA on fixed MDA-MB-231 cells
// reported pEC50 per item
On this scale, pEC50 is minus log10 of a concentration expressed in M (mol/L).

# example entries with known answers
| binder | pEC50 |
| --- | --- |
| Hab127.31d (antibody, human IgG1, kappa, V domains shown, also called humanized antibody of mab127) VH: EVQLVQSGAEVKKPGASVKVSCKASGYTFTAYFMNWVRQAPGQGLEWMGRIYHNKGDTFYSQKFKGRVTMTVDKSTSTVYMELSSLRSEDTAVYYCATSYVGDWGQGTTVTVSS VL: DIQMTQSPSSLSASVGDRVTITCRASQDIGDSLNWLQQKPGGALKRLIYATSSLDSGVPSRFSGSGSGTEYTLTISSLQPEDFATYYCLQYASFPWTFGGGTKVEIKR | 10.14 |
| CPX006 (antibody CPX-006 disclosed in patent application WO2018013611) (antibody, V domains shown) VH: QVQLVQSGAEVEKPGASVKVSCKASGYTFTSYWITWVRQAPGQGLEWMGDIYPGSGNTNYNEKFKTRVTITADKSTSTAYMELSSLRSEDTAVYYCAKEGGLTTEDYALDYWGQGTLVTVSS VL: EIVLTQSPATLSLSPGERATLSCRASKNVSTSGYSYMHWYQQKPGQAPRLLIYLASNLESGIPPRFSGSGYGTDFTLTINNIESEDAAYYFCQHSRELPFTFGQGTKVEIKR | 9.36 |
| Hab110.21 (antibody, human IgG1, kappa, V domains shown, also called humanized antibody of mab110) VH: EVQLVQSGAEVKKPGASVKVSCKASGYTFTSYTMHWVRQAPGQRLEWMGYINPNSFYIEYNQKFKDRVTITRDTSASTAYMELSSLRSEDTAVYYCARGDYDLFYDMDNWGQGTTVTVSS VL: DIQMTQSPSSLSASVGDRVTITCRASQDIGNSLNWLQQKPGKAIKRLIYATFRLDSGVPSRFSGSRSGTEYTLTISSLQPEDFATYYCQQYASFPWTFGGGTKVEIKR | 10.25 |

Now for another entry.
The reported pEC50 of the binder Hab108.64 (antibody, human IgG1, kappa, V domains shown, also called humanized antibody of mab108) VH: EVTLKQSGPGLVKPTETLTLTCTVSGFSLSSYGIQWVRQPPGKGLEWLGVIWSGGSADYNAAFISRLTISKDTSKSQVVLTMTNMDPVDTATYYCAGQYGSVWGQGTLVTVSS VL: DIQMTQSPSSLSASVGDRVTITCRASQDIGDRLNWLQQKPGGAIKRLIYATSSLDSGVPKRFSGSGSGTEYTLTISSLQPEDFATYYCLQYAGSWTFGGGTKVEIKR was 10.21
